experiment: Cell toxicity, cell growth inhibition assay (MTT uptake); format: cell-based; settings: monkey, Vero cells, 50% inhibition of cell viability at 96 hours, read-out: cell toxicity (CCID₅₀)
observed.property: CC50 at 96 h

Task: Could you tell me which CC50 at 96 h is on file for `CC#Cc1cn([C@@H]2O[C@H](CO)[C@@H](O)[C@@H]2O)c(=O)[nH]c1=O` ?
Result: > 500 µM

// provenance: patent EP0461815A1
